- assay method text: Cytotoxicity on VERO cells (MTT), anti-T. cruzi study
- condition parameters: African green monkey, VERO cells, Cytotoxicity VERO Lab B, Lab B
Measured IC50, listed per entry.
measured metric: IC50

[
  {
    "compound smiles": "COc1ccc(/C=N\\Nc2ncnc3sc4c(c23)CCCC4)c(OC)c1",
    "measured metric": "IC50",
    "value": "12 µg/mL"
  },
  {
    "compound smiles": "CC(C)c1ccc(/C=N\\Nc2ncnc3sc4c(c23)CCCC4)cc1",
    "measured metric": "IC50",
    "value": "1 µg/mL"
  },
  {
    "compound smiles": "COc1cccc(/C=N\\Nc2ncnc3sc4c(c23)CCCC4)c1",
    "measured metric": "IC50",
    "value": "5 µg/mL"
  },
  {
    "compound smiles": "Clc1ccccc1/C=N\\Nc1ncnc2sc3c(c12)CCCC3",
    "measured metric": "IC50",
    "value": "5 µg/mL"
  }
]
